Experiment: antimalarial activity against Dd2 strain (AID 2302);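 also: 0% = DMSO untreated growth and 100% = chloroquine plus artemisinin killed control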
Conditions: P. falciparum Dd2 in RBCs, LDH growth readout, 72 h; at 2 µM
Active and inactive are the calls of the source.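 The calls were made as follows: active = growth inhibition above 50% at the single 2 µM test dose, taken to imply half-maximal potency below 2 µM; inactive = the rest.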
Outcome codes: true (active), false (inactive)

{"SMILES_NOTATION": "Cc1ccc(CN2CCCN(Cc3cccc(C(=O)Nc4ccc(C(C)(C)C)cc4)c3)CC2)s1", "ANSWER_LABEL": "false"}
{"SMILES_NOTATION": "Cc1ccc(CN2CCN(Cc3cccc(NC(=O)c4ccc5ccccc5c4)c3)CC2)cc1C", "ANSWER_LABEL": "false"}
{"SMILES_NOTATION": "Cc1cc(NC2CCCC2)nc(Nc2ccccc2)n1", "ANSWER_LABEL": "true"}

---

Experiment: human hepatoma cell viability loss – ATP luminescence, cytotoxicity control for P. falciparum antimalarial project, primary screen (AID 2303);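 also: 0% = DMSO wells and 100% = digitonin-killed cells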
Conditions: HepG2 viability, 24-48 h, at 10 µM, stronger effect = higher value
inhibition values by entry
READOUT_NAME: inhibition (%)

{"MOLECULE": "CN1CCN=C1c1ccc(NC(=O)Nc2ccc(C3=NCCN3C)cc2)cc1", "READOUT_NAME": "inhibition", "UNIT_ABBREV": "%", "NUMBER": 7}
{"MOLECULE": "CCOc1ccc(CCC(=O)O)cc1OCC", "READOUT_NAME": "inhibition", "UNIT_ABBREV": "%", "NUMBER": 60}
{"MOLECULE": "O=[N+]([O-])c1ccccc1C=NNc1ccnc2ccc(C(F)(F)F)cc12", "READOUT_NAME": "inhibition", "UNIT_ABBREV": "%", "NUMBER": 6}
{"MOLECULE": "Cc1ccc(C(=O)N2CCc3cc4nccc(N5CCN6CCC[C@H]6C5)c4cc32)cc1", "READOUT_NAME": "inhibition", "UNIT_ABBREV": "%", "NUMBER": 5}
{"MOLECULE": "COc1ccc2ncc(F)c([C@@H](O)CN3CCC(NCc4cc5c(cn4)OCCO5)CC3)c2c1", "READOUT_NAME": "inhibition", "UNIT_ABBREV": "%", "NUMBER": -4}
{"MOLECULE": "Cc1ccc(Cn2ncc(N3CCC(N)CC3)c(Cl)c2=O)cc1NC(=O)Nc1ccc(-c2ccccc2)cc1", "READOUT_NAME": "inhibition", "UNIT_ABBREV": "%", "NUMBER": 29}
{"MOLECULE": "CN1CCN(Cc2ccc(-c3ccc4ncnc(Nc5ccc(OCc6ccccc6)cc5)c4c3)o2)CC1", "READOUT_NAME": "inhibition", "UNIT_ABBREV": "%", "NUMBER": 9}
{"MOLECULE": "Cc1cc(=O)c(-c2ccc(Oc3cccc(OC(F)(F)F)c3)cc2)c(C)[nH]1", "READOUT_NAME": "inhibition", "UNIT_ABBREV": "%", "NUMBER": 13}
{"MOLECULE": "N/C(=N/C(=NCCCCCCN=C(/N=C(/N)Nc1ccc(Cl)cc1)N1CCOCC1)N1CCOCC1)Nc1ccc(Cl)cc1", "READOUT_NAME": "inhibition", "UNIT_ABBREV": "%", "NUMBER": -11}
{"MOLECULE": "Cc1cc(NCCC(=O)Nc2ccccc2)nc(NCCc2cccnc2)n1", "READOUT_NAME": "inhibition", "UNIT_ABBREV": "%", "NUMBER": -1}
{"MOLECULE": "Cn1cnc(CCNC(=O)c2ccc(-c3cccc(-c4nc5ccc(F)cc5[nH]4)c3)cc2)c1", "READOUT_NAME": "inhibition", "UNIT_ABBREV": "%", "NUMBER": 23}
{"MOLECULE": "CCCOc1ccc(CCCON2C(N)=NC(N)=NC2(C)C)cc1", "READOUT_NAME": "inhibition", "UNIT_ABBREV": "%", "NUMBER": 65}
{"MOLECULE": "Cc1cccc2[nH]c(-c3ccc(-c4ccc(CNCCCN5CCCC5=O)cc4)cc3)nc12", "READOUT_NAME": "inhibition", "UNIT_ABBREV": "%", "NUMBER": 7}
{"MOLECULE": "O=C(Nc1cccc(CN2CCN(C(=O)c3ccccc3)CC2)c1)c1ccco1", "READOUT_NAME": "inhibition", "UNIT_ABBREV": "%", "NUMBER": 6}
{"MOLECULE": "O=C(Cc1ccc(Cl)cc1)NC1CCN(c2ccnc3cc(Cl)ccc23)C1 (centres undefined)", "READOUT_NAME": "inhibition", "UNIT_ABBREV": "%", "NUMBER": 13}
{"MOLECULE": "Cc1c(Oc2ccc(-n3ccnc3)cc2)ncnc1N1CCC2(CC1)CNCc1ccccc12", "READOUT_NAME": "inhibition", "UNIT_ABBREV": "%", "NUMBER": 26}
{"MOLECULE": "CCCCN1CCN(Cc2cccc(NC(=O)c3ccc(Cl)c(Cl)c3)c2)CC1", "READOUT_NAME": "inhibition", "UNIT_ABBREV": "%", "NUMBER": 21}
{"MOLECULE": "COc1ccc2nccc([C@@H](O)CN3CCC(NC(=O)/C=C/c4cc(F)cc(NC(C)=O)c4)CC3)c2c1", "READOUT_NAME": "inhibition", "UNIT_ABBREV": "%", "NUMBER": 7}
{"MOLECULE": "COc1cc(NC(=O)N2CCOC(CCN3CCC4(CCc5ccccc54)CC3)(c3ccc(Cl)c(Cl)c3)C2)cc(OC)c1OC (centres undefined)", "READOUT_NAME": "inhibition", "UNIT_ABBREV": "%", "NUMBER": 17}

---

Test: human hepatoma cell viability loss – ATP luminescence, cytotoxicity control for P. falciparum antimalarial project, primary screen (AID 2303);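 also: 0% = DMSO wells and 100% = digitonin-killed cells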
Conditions: HepG2 viability, 24-48 h, at 10 µM, stronger effect = higher value
READOUT_NAME: inhibition (%)

{"MOLECULE": "COc1ccc(CNCc2ccc(-c3cccc(-c4nc5ccc(F)cc5[nH]4)c3)cc2)cc1", "NUMBER": 33}
{"MOLECULE": "CCCCn1c(SC(C)C)nc2c(c1=O)C1(CCCCC1)Cc1ccccc1-2", "NUMBER": 1}
{"MOLECULE": "CC(C)(Cc1ccc(Cl)cc1)NCCCCCCNCCc1ccc(O)c(O)c1", "NUMBER": 45}
{"MOLECULE": "O=S(=O)(NCCN1CCCC1)c1ccc(-c2cccc(CNCCc3cccs3)c2)s1", "NUMBER": 39}
{"MOLECULE": "C=CCOc1ccccc1CNCC(O)c1cc(Br)cs1 (stereo not given)", "NUMBER": 25}

---

Biological target: L-lactate dehydrogenase (Plasmodium falciparum (isolate CDC / Honduras))
Assay: PfLDH activity inhibition – cell lysate, 3D7 strain, counter-screen for P. falciparum growth inhibition project (AID 2304);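 also: 0% = vehicle and 100% = reference inhibitor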
Settings: P. falciparum 3D7 crude extract, LDH APAD/NBT absorbance; at 2 µM; stronger effect = higher value
inhibition values by entry

{"COMPOUND": "CCOc1ccccc1CCNCC1CCN(CC2CCCCC2)CC1", "inhibition [%]": -1}
{"COMPOUND": "Cc1cccc2[nH]c(-c3ccc(-c4cccc(CNCC5CCCO5)c4)s3)nc12 (stereo not drawn)", "inhibition [%]": -8}
{"COMPOUND": "c1ccc2c(c1)CN(CC1CC1)CC1(CCN(Cc3c[nH]c4cnccc34)CC1)O2", "inhibition [%]": -1}

---

Experiment: human hepatoma cell viability loss – ATP luminescence, cytotoxicity control for P. falciparum antimalarial project, primary screen (AID 2303);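 also: 0% = DMSO wells and 100% = digitonin-killed cells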
Conditions: HepG2 viability, 24-48 h, at 10 µM, stronger effect = higher value
inhibition values by entry

{"SMILES_NOTATION": "O=C([C@@H]1CCCCN1c1ccc([N+](=O)[O-])c2ccccc12)N1CCN(c2ncccn2)CC1", "UNIT_ABBREV": "%", "inhibition": 50}
{"SMILES_NOTATION": "N#Cc1ccc(CNCCCCCCNCc2ccc(C#N)c3ccccc23)c2ccccc12", "UNIT_ABBREV": "%", "inhibition": 51}
{"SMILES_NOTATION": "CC(C)c1ccc(NC(=O)c2ccc(CN3CCCN(Cc4cccc(O)c4)CC3)cc2)cc1", "UNIT_ABBREV": "%", "inhibition": 51}
{"SMILES_NOTATION": "COc1ccc(C=C2SC(=O)NC2=Nc2ccccc2)c(OC)c1", "UNIT_ABBREV": "%", "inhibition": 51}

---

Assay: antimalarial activity against Dd2 strain (AID 2302);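 also: 0% = DMSO untreated growth and 100% = chloroquine plus artemisinin killed control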
Details: P. falciparum Dd2 in RBCs, LDH growth readout, 72 h; at 2 µM; stronger effect = higher value

{"MOLECULE": "COc1ccc2nccc([C@@H](O)CN3CCC(NC(=O)c4ccc(-c5ccccc5)s4)CC3)c2c1", "UNIT_ABBREV": "%", "growth inhibition": 81}
{"MOLECULE": "COc1ccccc1-c1cc(C(=O)N2CCN(S(=O)(=O)c3ccc(C)cc3)CC2)[nH]n1", "UNIT_ABBREV": "%", "growth inhibition": 88}
{"MOLECULE": "Cc1noc(C)c1-c1ccc(C(=C2CCCCCC2)c2ccc(O)cc2)cc1", "UNIT_ABBREV": "%", "growth inhibition": 96}
{"MOLECULE": "NC1CCCN(Cc2ccc(-c3ccc(-c4nc5ccc(F)cc5[nH]4)s3)cc2)C1 (stereo not given)", "UNIT_ABBREV": "%", "growth inhibition": 98}
{"MOLECULE": "CN1CCN(Cc2ccc(-c3ccc4ncnc(Nc5ccc(OCc6ccccc6)cc5)c4c3)o2)CC1", "UNIT_ABBREV": "%", "growth inhibition": 90}
